Sourced from patent US11780830B2

biological target: recombinant human MAO-A (monoamine oxidase-A) (Homo sapiens); construct: purchased Sigma-Aldrich; test: Activity on recombinant human MAO-A, method similar to the VAP-1 assay; type: biochemical; conditions: substrate 0.5 mM tyramine; read-out: Inhibitory Activity (IC50, nM) MAO-A
Sequence (P21397 whole entry): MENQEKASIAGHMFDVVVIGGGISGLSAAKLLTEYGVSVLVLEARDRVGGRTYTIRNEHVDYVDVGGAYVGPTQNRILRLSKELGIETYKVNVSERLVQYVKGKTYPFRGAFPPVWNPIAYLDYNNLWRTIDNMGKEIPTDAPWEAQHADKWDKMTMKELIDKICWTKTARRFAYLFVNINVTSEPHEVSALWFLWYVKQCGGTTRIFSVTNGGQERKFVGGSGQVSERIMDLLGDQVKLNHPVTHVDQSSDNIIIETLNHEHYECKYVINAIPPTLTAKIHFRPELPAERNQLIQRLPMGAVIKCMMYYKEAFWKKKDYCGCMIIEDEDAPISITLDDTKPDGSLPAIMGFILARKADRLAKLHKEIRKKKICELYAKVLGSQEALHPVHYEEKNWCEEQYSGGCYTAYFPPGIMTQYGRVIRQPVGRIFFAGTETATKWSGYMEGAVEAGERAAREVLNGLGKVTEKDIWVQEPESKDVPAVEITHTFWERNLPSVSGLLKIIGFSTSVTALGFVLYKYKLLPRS
Structures can show the parent of a compound that is named as a salt.
Quick reference for IC50 among some molecules

The examples below pair each entry with its known result.
Cn1cc(-c2ccc(Cn3cnn(C/C(=C/F)CN)c3=O)s2)ccc1=O: > 100000 nM
CNC(=O)c1ccc(-c2ccc(Cn3cnn(C/C(=C/F)CN)c3=O)s2)cc1: > 100000 nM
NC/C(=C\F)Cn1ncn(Cc2ccc(-c3cnn(C4CCNCC4)c3)s2)c1=O: > 100000 nM
NC/C(=C\F)Cn1ncn(Cc2ccc(-c3cccc(-c4noc(C5CC5)n4)c3)s2)c1=O [Example 36, hydrochloride]: > 100000 nM
CN1C(=O)COc2ccc(-c3ccc(Cn4cnn(C/C(=C/F)CN)c4=O)s3)cc21 [Example 96, hydrochloride]: 87000 nM

// lookup IC50 for NC/C(=C\F)Cn1ncn(Cc2ccc(C#Cc3ccc4c(n3)OCCN4)s2)c1=O [Example 136, hydrochloride]
20000 nM

Please answer likewise for NC/C(=C\F)Cn1ncn(Cc2ccc(-c3cnc(N4CCOCC4)nc3)s2)c1=O [Example 57, hydrochloride]
6600 nM

Please answer likewise for NC/C(=C\F)Cn1ncn(Cc2ccc(/C=C/c3ccsc3)s2)c1=O [Example 121, hydrochloride]
> 100000 nM

Please answer likewise for COC(=O)c1ccc(-c2ccc(Cn3cnn(C/C(=C/F)CN)c3=O)s2)cc1F [Example 12, hydrochloride]
> 100000 nM

Please answer likewise for NC/C(=C\F)Cn1ncn(Cc2ccc(-c3cnc4c(c3)COC(=O)N4)s2)c1=O
> 100000 nM

Please answer likewise for CS(=O)(=O)c1ccc(-c2csc(Cn3cnn(C/C(=C/F)CN)c3=O)c2)cc1
> 100000 nM

Please answer likewise for CN(C)c1ccc(-c2ccc3sc(Cn4cnn(C/C(=C/F)CN)c4=O)cc3c2)cn1
37000 nM

Please answer likewise for NC/C(=C\F)Cn1ncn(Cc2ccc(/C=C/c3ccc(C(F)(F)F)cc3)s2)c1=O [Example 119, hydrochloride]
> 100000 nM

Please answer likewise for CN1C(=O)COc2ncc(-c3ccc(Cn4cnn(C/C(=C/F)CN)c4=O)s3)cc21
> 100000 nM

Please answer likewise for NC/C(=C\F)Cn1ncn(Cc2ccc(-c3ccc(OC(F)F)cc3)s2)c1=O
> 100000 nM

Please answer likewise for NC/C(=C\F)Cn1ncn(Cc2ccc(-c3ccc4c(c3)CCCO4)s2)c1=O [Example 109, hydrochloride]
25300 nM

Please answer likewise for NC/C(=C\F)Cn1ncn(Cc2ccc(-c3cc4c(cc3F)OCCN4)s2)c1=O
18000 nM

Please answer likewise for Cn1cncc1C#Cc1ccc(Cn2cnn(C/C(=C/F)CN)c2=O)s1 [Example 130, hydrochloride]
57400 nM

Please answer likewise for NC/C(=C\F)Cn1ncn(Cc2ccc(C#Cc3ccc4c(c3)CCC(=O)N4)s2)c1=O [Example 133, hydrochloride]
49000 nM

Please answer likewise for NC/C(=C\F)Cn1ncn(Cc2ccc(-c3ccc(OCC4CC4)nc3)s2)c1=O
> 100000 nM

Please answer likewise for NC/C(=C\F)Cn1ncn(Cc2ccc(-c3ccc(=O)n(C4CC4)c3)s2)c1=O
> 100000 nM

Please answer likewise for NC/C(=C\F)Cn1ncn(Cc2ccc(-c3cc(F)c4c(c3)NC(=O)CO4)s2)c1=O [Example 94, hydrochloride]
11000 nM

Please answer likewise for CN(C)c1ncc(-c2ccc(Cn3cnn(C/C(=C/F)CN)c3=O)s2)cc1F
> 100000 nM

Please answer likewise for NC/C(=C\F)Cn1ncn(Cc2ccc(-c3cccc(S(=O)(=O)N4CCCC4)c3)s2)c1=O [Example 28, hydrochloride]
> 100000 nM
